Reference source for all entries: patent US20250228835A1

EC50: recorded values
biological target: ABCA4 P1380L (Homo sapiens, UniProt P78363, P1380L); construct: expressed in transfected cells; assay: A4 correction dose-response assay: ABCA4 P1380L HiBit protein expression; type: cell-based; conditions: HEK-293 cells stably expressing HiBit-tagged ABCA4 P1380L; 24 h treatment; top concentration 30 μM; read-out: ABCA4 P1380L EC50, Emax
Sequence (P78363 whole entry P1380L): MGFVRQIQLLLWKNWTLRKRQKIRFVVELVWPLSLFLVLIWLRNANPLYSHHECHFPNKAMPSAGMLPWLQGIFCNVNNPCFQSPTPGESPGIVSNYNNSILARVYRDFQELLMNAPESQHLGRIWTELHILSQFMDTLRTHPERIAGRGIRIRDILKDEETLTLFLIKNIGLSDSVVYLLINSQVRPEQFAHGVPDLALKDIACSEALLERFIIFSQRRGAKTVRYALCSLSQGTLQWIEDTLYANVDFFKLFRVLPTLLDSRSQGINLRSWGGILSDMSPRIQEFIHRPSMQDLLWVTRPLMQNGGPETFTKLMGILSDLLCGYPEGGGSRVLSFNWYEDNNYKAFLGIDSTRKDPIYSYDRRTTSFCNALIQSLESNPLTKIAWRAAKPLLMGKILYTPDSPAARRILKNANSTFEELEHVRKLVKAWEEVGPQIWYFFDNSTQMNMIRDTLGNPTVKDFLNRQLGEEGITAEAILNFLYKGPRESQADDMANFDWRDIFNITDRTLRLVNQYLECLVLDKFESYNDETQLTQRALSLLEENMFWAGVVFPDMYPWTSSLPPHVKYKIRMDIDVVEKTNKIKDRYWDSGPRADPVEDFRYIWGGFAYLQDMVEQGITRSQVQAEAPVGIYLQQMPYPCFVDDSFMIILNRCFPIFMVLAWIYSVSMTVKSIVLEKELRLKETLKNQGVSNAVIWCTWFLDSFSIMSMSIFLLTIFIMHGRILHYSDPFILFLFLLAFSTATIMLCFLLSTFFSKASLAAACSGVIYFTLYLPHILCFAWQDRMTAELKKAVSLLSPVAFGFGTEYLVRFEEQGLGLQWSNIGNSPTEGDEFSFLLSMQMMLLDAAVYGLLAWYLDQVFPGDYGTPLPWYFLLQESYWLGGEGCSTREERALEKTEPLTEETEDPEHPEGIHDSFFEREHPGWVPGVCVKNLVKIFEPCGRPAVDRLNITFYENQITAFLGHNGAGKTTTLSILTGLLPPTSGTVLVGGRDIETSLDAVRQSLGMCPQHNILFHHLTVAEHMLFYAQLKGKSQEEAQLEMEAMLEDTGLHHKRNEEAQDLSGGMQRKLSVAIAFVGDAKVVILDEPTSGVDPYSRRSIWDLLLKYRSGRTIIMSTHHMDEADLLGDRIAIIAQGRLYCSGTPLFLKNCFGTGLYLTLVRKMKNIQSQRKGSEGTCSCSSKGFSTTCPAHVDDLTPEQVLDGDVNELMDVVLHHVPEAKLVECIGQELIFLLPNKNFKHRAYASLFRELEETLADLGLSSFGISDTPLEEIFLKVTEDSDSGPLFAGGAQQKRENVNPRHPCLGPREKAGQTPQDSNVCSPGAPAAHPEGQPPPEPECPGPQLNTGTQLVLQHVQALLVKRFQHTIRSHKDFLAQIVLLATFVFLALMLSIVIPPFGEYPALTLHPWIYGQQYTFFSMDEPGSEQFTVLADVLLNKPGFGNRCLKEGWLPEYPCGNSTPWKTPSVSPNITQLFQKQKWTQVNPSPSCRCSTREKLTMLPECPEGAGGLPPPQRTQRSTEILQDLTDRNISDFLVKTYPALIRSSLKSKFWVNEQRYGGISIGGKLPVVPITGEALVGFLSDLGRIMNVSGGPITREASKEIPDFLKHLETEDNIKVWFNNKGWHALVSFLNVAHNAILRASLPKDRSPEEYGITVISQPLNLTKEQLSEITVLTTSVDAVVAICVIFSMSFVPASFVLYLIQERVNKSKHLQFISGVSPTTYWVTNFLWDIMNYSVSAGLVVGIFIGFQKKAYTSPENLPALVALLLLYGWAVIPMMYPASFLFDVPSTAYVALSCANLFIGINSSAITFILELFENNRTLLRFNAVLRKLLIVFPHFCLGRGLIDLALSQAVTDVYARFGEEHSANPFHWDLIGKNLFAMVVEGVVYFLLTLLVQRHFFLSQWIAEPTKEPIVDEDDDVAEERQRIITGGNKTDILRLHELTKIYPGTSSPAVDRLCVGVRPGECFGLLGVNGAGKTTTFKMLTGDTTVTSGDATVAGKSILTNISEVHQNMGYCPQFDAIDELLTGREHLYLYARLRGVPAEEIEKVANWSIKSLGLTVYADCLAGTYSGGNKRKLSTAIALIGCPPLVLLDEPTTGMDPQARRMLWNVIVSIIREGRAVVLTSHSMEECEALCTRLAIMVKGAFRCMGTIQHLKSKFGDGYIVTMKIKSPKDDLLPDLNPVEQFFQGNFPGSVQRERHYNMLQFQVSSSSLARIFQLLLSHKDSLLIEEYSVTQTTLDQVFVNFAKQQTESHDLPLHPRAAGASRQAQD

compound | EC50
Cc1cc(C(F)F)nc(C2CC2)c1Oc1nc(-c2cncc(C#N)c2)ccc1N(C)S(C)(=O)=O | > 25000 nM
Cc1cc(C2CC2)nc(C)c1Oc1nc(-c2cncc(C#N)c2)ccc1NS(=O)(=O)C1CCC1 | < 1000 nM
Cc1ccc(Oc2nc(-c3cncc(C#N)c3)ccc2NS(C)(=O)=O)c(C)n1 | < 1000 nM
Cc1cc(C)c(Oc2nc(-c3cncc(C#N)c3)ccc2S(=N)(=O)C2CC2)c(C)c1 (stereo not shown) | 1000 to 10000 nM
